These measurements were taken from paper PMC3934850.

Target: myoglobin (carbonmonoxy myoglobin, MbCO) (Equus caballus, UniProt P68082)
Sequence (P68082 2-154): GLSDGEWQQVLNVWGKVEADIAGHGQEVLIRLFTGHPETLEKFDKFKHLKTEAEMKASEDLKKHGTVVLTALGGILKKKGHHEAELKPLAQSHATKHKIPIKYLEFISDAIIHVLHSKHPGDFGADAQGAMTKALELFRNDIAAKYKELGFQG
readout: Kd

// map CCCCCCCCCCCCCCCC(=O)O [PA, palmitate] to recorded Kd (system: myoglobin (carbonmonoxy myoglobin, MbCO) (Equus caballus, UniProt P68082))
39 to 48 µM
